tested on: L929 mouse fibroblasts cells; assay: Cytotoxicity, propidium iodide fluorescence method; format: cell-based; details: 20 μM, 24-h incubation
// reported 20 μM Average (% pi) ± σ for each item listed
Express your answer in %, writing the number without its unit.

Worked cases, 20 μM Average (% pi) ± σ given:
O=C(/C=C/c1ccco1)c1ccc(OCCCOc2ccc(C(=O)/C=C/c3ccco3)cc2)cc1: 25.93
O=C(/C=C/c1cccs1)c1ccc(OCCCOc2ccc(C(=O)/C=C/c3cccs3)cc2)cc1: 3.02
O=C(/C=C/C=C/c1ccc([N+](=O)[O-])cc1)c1ccc(O)cc1: 18.81
O=C(/C=C/C(Br)=C\c1ccccc1)c1ccc(O)cc1: 2.7

Alright, here's another compound for you.
## Input State the recorded 20 μM Average (% pi) ± σ for this entry: `O=C(/C=C/C=C/c1ccccc1)c1ccc(OCCCOc2ccc(C(=O)/C=C/C=C/c3ccccc3)cc2)cc1`
## Output 25.4

###

// reported 10 μM Average (% pi) ± σ for each item listed
system: L929 mouse fibroblasts cells; assay: Cytotoxicity, propidium iodide fluorescence method; type: cell-based; details: 10 μM, 24-h incubation
Express your answer in %, writing the number without its unit.

Worked cases, 10 μM Average (% pi) ± σ given:
O=C(/C=C/c1c[nH]c2ccccc12)c1ccc(OCCCOc2ccc(C(=O)/C=C/c3c[nH]c4ccccc34)cc2)cc1 [c6]: 2.2
O=C(/C=C/C=C/c1ccccc1)c1ccc(OCCCOc2ccc(C(=O)/C=C/C=C/c3ccccc3)cc2)cc1 [c7]: 28.73

## Input State the recorded 10 μM Average (% pi) ± σ for this entry: O=C(/C=C/C=C/c1ccccc1)c1ccc(O)cc1 [a7]
## Output 9.27

## Input Next record, please: O=C(/C=C/C(Br)=C\c1ccccc1)c1ccc(O)cc1 [a9]
## Output 0.59

###

system: L929 mouse fibroblasts cells; assay: Cytotoxicity, propidium iodide fluorescence method; format: cell-based; conditions: 50 μM, 24-h incubation
property: 50 μM Average (% pi) ± σ (%)
Express your answer in %, writing the number without its unit.

Worked cases, 50 μM Average (% pi) ± σ given:
CC(=O)c1ccc(OCCCCCCCOc2ccc(C(C)=O)cc2)cc1 [dvi]: 2.55
O=C(/C=C/c1ccco1)c1ccc(O)cc1 [a10]: 17.15

Alright, here's another molecule for you.
## Input State the recorded 50 μM Average (% pi) ± σ for this entry: O=C(/C=C/C=C/c1ccc([N+](=O)[O-])cc1)c1ccc(O)cc1 [a11]
## Output 67.84

###

// reported RM for each item listed
assay: Lipophilicity as RM values by RP-TLC; type: physicochemical; parameters: key: RM = log[(1/Rf) − 1]; settings: methanol/water 70/30, SD < 10%
Output: the number by itself.

Worked cases, RM given:
O=C(/C=C/c1ccccc1)c1ccc(OCCCOc2ccc(C(=O)/C=C/c3ccccc3)cc2)cc1: 0.34
O=C(/C=C/c1cccc(Oc2ccccc2)c1)c1ccccc1O: 0.04
O=C(/C=C/C(Br)=C\c1ccccc1)c1ccc(OCCCOc2ccc(C(=O)/C=C/C(Br)=C\c3ccccc3)cc2)cc1: −0.86
Cc1ccc(/C=C/C(=O)c2ccc(O)cc2)o1: −0.81
CN(C)c1ccc(/C=C/C=C/C(=O)c2ccc(OCCCCCOc3ccc(C(=O)/C=C/C=C/c4ccc(N(C)C)cc4)cc3)cc2)cc1: 0.13
O=C(/C=C/c1ccco1)c1ccc(OCCCOc2ccc(C(=O)/C=C/c3ccco3)cc2)cc1: 0.7
CC(=O)c1ccc(OCCCCCCCOc2ccc(C(C)=O)cc2)cc1: 0.32
O=C(/C=C/c1ccco1)c1ccc(O)cc1: −0.06
O=C(/C=C/C1=C2C=CC=CC2NC1)c1ccc(O)cc1 (centres unmarked): −0.65
O=C(/C=C/c1ccc(OCc2ccc(Br)cc2)cc1)c1ccccc1O: −0.91

## Input State the recorded RM for this entry: `O=C(/C=C/c1cccc2ccccc12)c1ccccc1O`
## Output −0.03

## Input Next record, please: `CC(/C=C/C(=O)c1ccccc1O)=C\c1ccccc1`
## Output −0.79

## Input Next record, please: `O=C(/C=C/c1ccccc1)c1ccccc1O`
## Output 0.43

## Input Next record, please: `CC(/C=C/C(=O)c1ccc(O)cc1)=C\c1ccccc1`
## Output −0.68

## Input Next record, please: `O=C(/C=C/C=C/c1ccc([N+](=O)[O-])cc1)c1ccccc1O`
## Output −0.91

###

// reported ABTS•+ Inhb. % @ 100 μM for each item listed
test: ABTS•+ decolorization assay
Express your answer in %, writing the number without its unit.

Worked cases, ABTS•+ Inhb. % @ 100 μM given:
O=C(/C=C/c1ccc(OCc2ccc(Br)cc2)cc1)c1ccccc1O: 40
Cc1ccc(/C=C/C(=O)c2ccc(OCCCOc3ccc(C(=O)/C=C/c4ccc(C)o4)cc3)cc2)o1: 17
Cc1ccc(/C=C/C(=O)c2ccc(O)cc2)o1: 6
CN(C)c1ccc(/C=C/C=C/C(=O)c2ccccc2O)cc1: 96
CC(/C=C/C(=O)c1ccccc1O)=C\c1ccccc1: 12

## Input State the recorded ABTS•+ Inhb. % @ 100 μM for this entry: `O=C(/C=C/c1ccco1)c1ccc(OCCCOc2ccc(C(=O)/C=C/c3ccco3)cc2)cc1`
## Output 11

## Input Next record, please: Cc1c(C)c2c(c(C)c1O)CCC(C)(C(=O)O)O2 (stereo not shown) [Trolox, reference compound]
## Output 96

## Input Next record, please: `O=C(/C=C/C=C/c1ccccc1)c1ccc(O)cc1`
## Output 12

###

tested on: L929 mouse fibroblasts cells; test: Cytotoxicity, propidium iodide fluorescence method; format: cell-based; details: 50 μM, 24-h incubation
property: 50 μM Average (% pi) ± σ (%)
Express your answer in %, writing the number without its unit.

## Input State the recorded 50 μM Average (% pi) ± σ for this entry: O=C(/C=C/C(Br)=C\c1ccccc1)c1ccc(OCCCOc2ccc(C(=O)/C=C/C(Br)=C\c3ccccc3)cc2)cc1 [c9]
## Output 29.53

## Input Next record, please: O=C(/C=C/C=C/c1ccc([N+](=O)[O-])cc1)c1ccc(OCCCOc2ccc(C(=O)/C=C/C=C/c3ccc([N+](=O)[O-])cc3)cc2)cc1 [c11]
## Output 64.53

## Input Next record, please: CC(/C=C/C(=O)c1ccc(O)cc1)=C\c1ccccc1 [a8]
## Output 8.15

## Input Next record, please: O=C(/C=C/C1=C2C=CC=CC2NC1)c1ccc(O)cc1 (stereo not shown) [a6]
## Output 6.67

###

Target: UniProt:P08170
Sequence (P08170 whole entry): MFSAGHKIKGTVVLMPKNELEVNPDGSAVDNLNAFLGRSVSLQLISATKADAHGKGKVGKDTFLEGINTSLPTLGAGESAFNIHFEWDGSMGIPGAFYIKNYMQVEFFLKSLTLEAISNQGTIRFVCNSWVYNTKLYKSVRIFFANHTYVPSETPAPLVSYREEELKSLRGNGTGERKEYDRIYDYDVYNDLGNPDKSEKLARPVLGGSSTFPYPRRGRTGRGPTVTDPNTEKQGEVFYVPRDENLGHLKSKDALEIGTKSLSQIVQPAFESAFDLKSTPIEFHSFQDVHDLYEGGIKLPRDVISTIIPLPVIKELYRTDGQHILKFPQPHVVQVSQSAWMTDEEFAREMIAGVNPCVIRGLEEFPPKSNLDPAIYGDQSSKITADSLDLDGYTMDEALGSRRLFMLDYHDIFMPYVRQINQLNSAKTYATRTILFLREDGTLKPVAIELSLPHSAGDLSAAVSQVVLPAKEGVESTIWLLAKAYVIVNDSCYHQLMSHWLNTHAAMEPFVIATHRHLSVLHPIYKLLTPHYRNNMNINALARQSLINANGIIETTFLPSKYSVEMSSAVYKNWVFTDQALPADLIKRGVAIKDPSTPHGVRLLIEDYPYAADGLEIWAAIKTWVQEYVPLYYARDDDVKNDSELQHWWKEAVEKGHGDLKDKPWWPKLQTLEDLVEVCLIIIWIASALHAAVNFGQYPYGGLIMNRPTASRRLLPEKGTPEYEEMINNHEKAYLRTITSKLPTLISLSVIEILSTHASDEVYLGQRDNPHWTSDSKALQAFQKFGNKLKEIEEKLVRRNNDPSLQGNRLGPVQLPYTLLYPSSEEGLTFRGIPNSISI
Assay: biochemical
Format: biochemical
Details: soybean LOX; read-out: LOX IC50
Method: In our experiments we used soybean lipoxygenase. Designing agents to modulate activities of the variety of so closely homologous enzymes, such as different LOXs, require an intimate knowledge of their 3D structures, as well as information about metabolism of the potential xenobiotics. […] Due to lack of sufficiently-purified human enzymes most of the research has been done on soybean LOX [52, 53]. […] In vitro study was evaluated as reported previously. […]
property: pIC50
# pIC50 is unitless: minus log10 of the molar concentration; print number only

Worked cases, pIC50 given:
O=C(/C=C/c1cccc2ccccc12)c1ccccc1O: 4.19
O=C(/C=C/c1ccccc1)c1ccc(OCCCOc2ccc(C(=O)/C=C/c3ccccc3)cc2)cc1: 4.19
Cc1ccc(/C=C/C(=O)c2ccc(OCCCOc3ccc(C(=O)/C=C/c4ccc(C)o4)cc3)cc2)o1: 4.02

Alright, here's another molecule for you.
## Input State the recorded pIC50 for this entry: `O=C(/C=C/c1c[nH]c2ccccc12)c1ccc(OCCCOc2ccc(C(=O)/C=C/c3c[nH]c4ccccc34)cc2)cc1`
## Output 4.27

###

tested on: L929 mouse fibroblasts cells; assay: Cytotoxicity, propidium iodide fluorescence method; assay type: cell-based; settings: 20 μM, 24-h incubation
property: 20 μM Average (% pi) ± σ (%)
Express your answer in %, writing the number without its unit.

Worked cases, 20 μM Average (% pi) ± σ given:
Cc1ccc(/C=C/C(=O)c2ccc(O)cc2)o1: 8.12
CC(=O)c1ccc(OCCOc2ccc(C(C)=O)cc2)cc1: 16.78
Cc1ccc(/C=C/C(=O)c2ccc(OCCCOc3ccc(C(=O)/C=C/c4ccc(C)o4)cc3)cc2)o1: 53.79
CC(=O)c1ccc(OCCCCCCCOc2ccc(C(C)=O)cc2)cc1: 1.79
O=C(/C=C/C=C/c1ccc([N+](=O)[O-])cc1)c1ccc(OCCCOc2ccc(C(=O)/C=C/C=C/c3ccc([N+](=O)[O-])cc3)cc2)cc1: 34.63
CC(=O)c1ccc(OCCCCOc2ccc(C(C)=O)cc2)cc1: 20.76

## Input Enter reported 20 μM Average (% pi) ± σ observed with L929 mouse fibroblasts cells for `O=C(/C=C/c1c[nH]c2ccccc12)c1ccc(OCCCOc2ccc(C(=O)/C=C/c3c[nH]c4ccccc34)cc2)cc1`
## Output 1.16

## Input Next record, please: `O=C(/C=C/c1cccs1)c1ccc(O)cc1`
## Output 28.32

## Input Next record, please: `CC(/C=C/C(=O)c1ccc(OCCCOc2ccc(C(=O)/C=C/C(C)=C/c3ccccc3)cc2)cc1)=C\c1ccccc1`
## Output 35.69

// provenance: paper PMC6337391
